biological target: T1, Cynomolgus Monkey c-Met-Flis-Fc ECD (cynomolgus monkey); assay: SPR Biacore, antibody captured, ECD-Fc analyte, 1:1 model
T1 construct: also called Cynomolgus Monkey cMet-ECD-Fc-Flis; cynomolgus monkey c-Met ECD
T1 sequence (chain, as listed by the source limits assumed): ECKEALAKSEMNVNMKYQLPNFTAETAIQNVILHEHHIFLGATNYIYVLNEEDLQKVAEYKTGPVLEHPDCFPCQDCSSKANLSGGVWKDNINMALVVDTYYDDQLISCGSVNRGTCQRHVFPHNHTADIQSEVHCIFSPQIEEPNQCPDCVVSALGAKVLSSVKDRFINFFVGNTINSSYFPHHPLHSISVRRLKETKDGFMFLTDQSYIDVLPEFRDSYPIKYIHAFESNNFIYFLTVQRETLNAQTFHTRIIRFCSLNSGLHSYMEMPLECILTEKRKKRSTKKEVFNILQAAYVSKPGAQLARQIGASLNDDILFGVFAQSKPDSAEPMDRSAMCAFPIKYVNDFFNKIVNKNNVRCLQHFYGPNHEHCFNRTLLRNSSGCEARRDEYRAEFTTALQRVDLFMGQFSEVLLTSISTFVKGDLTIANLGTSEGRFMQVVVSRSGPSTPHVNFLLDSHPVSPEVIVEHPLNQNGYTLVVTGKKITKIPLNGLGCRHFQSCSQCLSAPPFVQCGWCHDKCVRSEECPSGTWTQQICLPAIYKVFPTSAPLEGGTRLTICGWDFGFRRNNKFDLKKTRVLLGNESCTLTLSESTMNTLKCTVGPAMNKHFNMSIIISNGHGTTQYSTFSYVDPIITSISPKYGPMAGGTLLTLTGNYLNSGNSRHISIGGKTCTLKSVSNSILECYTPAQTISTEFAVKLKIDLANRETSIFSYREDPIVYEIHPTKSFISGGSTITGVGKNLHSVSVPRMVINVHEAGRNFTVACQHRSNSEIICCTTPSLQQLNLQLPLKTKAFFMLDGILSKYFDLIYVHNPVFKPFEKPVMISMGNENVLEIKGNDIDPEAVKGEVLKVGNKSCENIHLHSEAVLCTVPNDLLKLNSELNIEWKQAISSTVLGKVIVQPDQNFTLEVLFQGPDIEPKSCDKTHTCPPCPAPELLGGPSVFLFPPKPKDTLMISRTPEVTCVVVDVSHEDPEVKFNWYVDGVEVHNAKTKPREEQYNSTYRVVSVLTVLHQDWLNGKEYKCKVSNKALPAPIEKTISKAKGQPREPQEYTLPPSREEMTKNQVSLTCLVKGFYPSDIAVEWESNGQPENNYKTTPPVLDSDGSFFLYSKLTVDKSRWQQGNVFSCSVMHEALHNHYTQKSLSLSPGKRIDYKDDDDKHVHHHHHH
Would you kindly list koff for each of these binders?
Just the number in s⁻¹, nothing appended.

In plain terms, D11-C27G3 (antibody, human IgG2, kappa, V domains shown, Human engineered IgG2, kappa; also called D11-27G3) VH: QVQLVQSGAEVKKPGSSVKVSCKASGYTFTSRYIHWVRQAPGQGLEWMGWIYPVTGDTYYREPFKGRVTITADKSTSTAYMELSSLRSEDTAVYYCARGYGAFYYWGQGTLVTVSS VL: EIVLTQSPGTLSLSPGERATLSCSVSSSISSTNLHWYQQKPGQAPRLLIYGTSRLRSGIPDRFSGSGSGTDFTLTISRLEPEDFAVYYCQQWSSYPYSFGQGTKLEIKR has a documented koff of 0.00032

response.value for D11-8B8 (antibody, human IgG2, kappa, V domains shown, Human engineered IgG2, kappa; expressed in HEK293 EBNA cells; also called Mab D11-8B8) VH: QVQLVQSGAEVKKPGSSVKVSCKASGYTFTSRYIHWVRQAPGQGLEWMGWIYPVTGDTYYIEKFKGRVTITADKSTSTAYMELSSLRSEDTAVYYCARGYGAFFYWGQGTLVTVSS VL: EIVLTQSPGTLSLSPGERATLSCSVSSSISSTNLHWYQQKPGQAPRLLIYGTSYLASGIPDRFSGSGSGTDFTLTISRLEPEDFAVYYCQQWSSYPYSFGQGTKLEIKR (field: koff) = 0.000223

D11-S17Y (antibody, human IgG2, kappa, V domains shown, Human engineered IgG2, kappa) VH: QVQLVQSGAEVKKPGSSVKVSCKASGYTFTSRYIHWVRQAPGQGLEWMGWIYPVTGDTYYNEKFKGRVTITADKSTSTAYMELSSLRSEDTAVYYCARGYGAFYYWGQGTLVTVSS VL: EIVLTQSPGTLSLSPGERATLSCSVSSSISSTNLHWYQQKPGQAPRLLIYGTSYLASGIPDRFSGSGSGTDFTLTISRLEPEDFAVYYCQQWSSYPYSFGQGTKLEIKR has a reported koff of 0.00036

Where do these numbers come from? They come from patent US20100129369A1.
